The origin of these recorded values is paper PMC8912008.

Below, each entry is listed alongside its reported Processed sample stability (% ± SD).
test: Stability of analytes in rat plasma; details: processed rat plasma sample, 4 h, low QC (nominal 10.05-10.50 ng/mL), n = 6
The response must be a number in % with no trailing unit.

Recorded Processed sample stability (% ± SD), per entry:
molecule	measurement
CC1=C(CO)C(=O)O[C@@H]([C@@H](C)[C@H]2CC[C@H]3[C@@H]4C[C@H]5O[C@]56[C@@H](O)C=CC(=O)[C@]6(C)[C@H]4CC[C@]23C)C1	103.30
CC1=C(CO)C(=O)OC(C(C)C2CCC3C4C5OC5C5(O)CC=CC(=O)C5(C)C4CCC23C)C1 (stereo not shown) [12-Deoxy-withastramonolide]	121.14
CC1=C(CO)C(=O)O[C@@H]([C@@H](C)[C@H]2CC[C@H]3[C@@H]4CC=C5C[C@@H](O[C@@H]6O[C@H](CO[C@@H]7O[C@H](CO)[C@@H](O)[C@H](O)[C@H]7O)[C@@H](O)[C@H](O)[C@H]6O)C[C@H](O)[C@]5(C)[C@H]4CC[C@]23C)C1 [Withanoside IV]	104.41
CC1=C(C)C(=O)O[C@@H]([C@](C)(O)[C@H]2CC[C@H]3[C@@H]4[C@@H]5O[C@@H]5[C@@]5(O)CC=CC(=O)[C@]5(C)[C@H]4CC[C@]23C)C1 [Withanolide A]	128.43
CC1=C(C)C(=O)O[C@@H]([C@@H](C)[C@H]2CC[C@H]3[C@@H]4CC=C5C[C@@H](O[C@@H]6O[C@H](CO[C@@H]7O[C@H](CO)[C@@H](O)[C@H](O)[C@H]7O)[C@@H](O)[C@H](O)[C@H]6O)C[C@H](O)[C@]5(C)[C@H]4CC[C@]23C)C1 [Withanoside V]	134.85
CC1=C(C)C(=O)O[C@@H]([C@@H](C)[C@@]2(O)CC[C@H]3[C@@H]4[C@@H]5O[C@@H]5[C@@]5(O)CC=CC(=O)[C@]5(C)[C@H]4CC[C@@]32C)C1	112.07

// next item, Processed sample stability (% ± SD) requested
Specify Processed sample stability (% ± SD) for CC1=C(C)C(=O)O[C@@H]([C@@H](C)[C@H]2CC[C@H]3[C@@H]4[C@@H]5O[C@@H]5[C@@]5(O)CC=CC(=O)[C@]5(C)[C@H]4CC[C@]23C)C1 [Withanolide B] and stop. 113.48
